These data points were gathered from patent US9937194B1.

tested on: MMP9; experiment: PMA-induced MMP9 expression in U937 cells (gelatin zymography); format: cell-based, human; conditions: test concentration not given; bracketed second value not explained
Result Type: MMP9 inhibition (%)

So what does the record say about MMP9 inhibition (%) for CCC1OC(=O)C(C)C(OC2CC(C)(OC)C(O)C(C)O2)C(C)C(OC2OC(C)CC(N(C)C)C2O)C(C)(O)CC(C)CN(C)C(C)C2OC(=O)OC12C (stereo not drawn) [Example 42] ? −2%

So what does the record say about MMP9 inhibition (%) for CC[C@H]1OC(=O)[C@H](C)C(=O)[C@H](C)[C@@H](O[C@@H]2O[C@H](C)C[C@H](N(C)C)[C@H]2O)[C@@](C)(OC)C[C@@H](C)CN(C(=O)CCCn2cc(-c3ccc(Br)cc3)nn2)[C@H](C)[C@@H](O)[C@]1(C)O [Example 41] ? 39 (41) %

So what does the record say about MMP9 inhibition (%) for CC[C@H]1OC(=O)[C@H](C)C(=O)[C@H](C)[C@@H](O[C@H]2C[C@@H](N(C)C)[C@H](O)[C@@H](C)O2)[C@@](C)(OC)C[C@@H](C)C(=O)[C@H](C)[C@H]2N(CCCCn3cc(-c4ccccn4)nn3)C(=O)O[C@]12C [Example 21] ? 49 (41) %

So what does the record say about MMP9 inhibition (%) for CCC1OC(=O)C(C)C(OC2OCC(O)C(NC)C2O)C(C)C(OC2OC(C)CC(N(C)C)C2O)C(C)(O)CC(C)CN(C(C)=O)C(C)C2OC(=O)OC12C (mixture of isomers) [Example 32] ? 40 (49) %

So what does the record say about MMP9 inhibition (%) for CC[C@H]1OC(=O)[C@@](C)(F)C(=O)[C@H](C)[C@@H](O[C@@H]2O[C@H](C)[C@@H](OC(=O)Nc3ccccc3)[C@H](N(C)C)[C@H]2O)[C@@](C)(OC)C[C@@H](C)C(=O)[C@H](C)[C@H]2N(CCCCn3cc(-c4ccccn4)nn3)C(=O)O[C@]12C [Example 27] ? 1%

So what does the record say about MMP9 inhibition (%) for CCC1OC(=O)C(C)C(OC2OCC(O)C(N(C)C)C2O)C(C)C(OC2OC(C)CC(N(C)C)C2O)C(C)(O)CC(C)CN(C(C)=O)C(C)C2OC(=O)OC12C (mixture of isomers) [Example 40] ? 60 (38) %
